Numbers sourced from patent US12029739B2.

tested on: phospho-ERK in MIA PaCa2 or H358 cells; test: Phospho-ERK assay (AlphaLisa); assay type: cell-based; conditions: 1.5 h, MIA PaCa2 or H358 cells, compound incubated 1.5 hours; read-out: IC50 (p-ERK)
pIC50: −log10 of the molar value.
readout.name: pIC50

Query: Determine from records and report pIC50 for C[C@@H]1OCC2(CCN(c3cnc(Sc4ccc5ncn(CCN(C)C)c(=O)c5c4Cl)cn3)CC2)[C@@H]1N [Example 67]
Result: 5.82 to 7.35

Query: Determine from records and report pIC50 for C[C@@H]1OCC2(CCN(c3cnc(Sc4ccc5ncn(Cc6ccoc6)c(=O)c5c4Cl)cn3)CC2)[C@@H]1N [Example 119]
Result: > 7.35

Query: Determine from records and report pIC50 for C[C@@H]1OCC2(CCN(c3cnc(Sc4ccc5ncn(CC6CCOCC6)c(=O)c5c4Cl)cn3)CC2)[C@@H]1N [Example 65]
Result: > 7.35

Query: Determine from records and report pIC50 for C[C@@H]1OCC2(CCN(c3cnc(Sc4ccc5ncn(CC6(O)CCOCC6)c(=O)c5c4Cl)cn3)CC2)[C@@H]1N [Example 83]
Result: > 7.35

Query: Determine from records and report pIC50 for C[C@@H]1OCC2(CCN(c3cnc(Sc4ccc5c(c4Cl)S(=O)(=O)N(Cc4ccccc4)C=N5)cn3)CC2)[C@@H]1N [Example 124]
Result: > 7.35

Query: Determine from records and report pIC50 for N[C@@H]1c2cccnc2CC12CCN(c1cnc(Sc3ccc4ncn(CCCO)c(=O)c4c3Cl)cn1)CC2 [Example 109]
Result: > 7.35
